Test: Biodistribution in HEK-ACE2/HEK-ACE xenografted mice
Type: in vivo, mouse
Conditions: female, CD1/nude, mouse, heart, iv, 0.5 nmol, total radioactivity, 3 h after i.v. injection, decay-corrected, n = 3; read-out: Biodistribution: heart
Residues, ends and D or L forms follow the SMILES beside them. *: point of attachment. DOTA = O=C(O)CN1CCN(CC(=O)O)CCN(CC(=O)*)CCN(CC(=O)O)CC1; Ahx = NCCCCCC(=O)O
Observed Property: tissue uptake at 3 h (%ID/g)
Numbers only, in %ID/g.

# query: tissue uptake at 3 h of entry CC[C@H](C)[C@H](NC(=O)[C@H](CCC(N)=O)NC(=O)[C@@H]1CCCN1C(=O)[C@H](CCCNC(=N)N)NC(=O)[C@@H]1CCCN1C(=O)[C@H](Cc1c[nH]c2ccccc12)NC(=O)[C@H](CCC(=O)O)NC(=O)CCCCCNC(=O)CCCCCNC(=O)CN1CCN(CC(=O)O)CCN(CC(=O)O)CCN(CC(=O)O)CC1)C(=O)N1CCC[C@H]1C(=O)N1CCC[C@H]1C(=O)O [[^67Ga]Ga-DOTA-BPP9a, metal not drawn] ({DOTA-Ahx-Ahx}-EWPRPQIPP-OH)
0.03

###

Assay: Biodistribution in HEK-ACE2/HEK-ACE xenografted mice
Assay type: in vivo, mouse
Details: female, CD1/nude, mouse, intestines, iv, 0.5 nmol, total radioactivity, 3 h after i.v. injection, decay-corrected, n = 3; read-out: Biodistribution: intestines
Residues, ends and D or L forms follow the SMILES beside them. *: point of attachment. DOTA = O=C(O)CN1CCN(CC(=O)O)CCN(CC(=O)*)CCN(CC(=O)O)CC1; Ahx = NCCCCCC(=O)O
Observed Property: tissue uptake at 3 h
Kindly format the answer as number then unit.

# query: tissue uptake at 3 h of entry CC[C@H](C)[C@H](NC(=O)[C@H](CCC(N)=O)NC(=O)[C@@H]1CCCN1C(=O)[C@H](CCCNC(=N)N)NC(=O)[C@@H]1CCCN1C(=O)[C@H](Cc1c[nH]c2ccccc12)NC(=O)[C@H](CCC(=O)O)NC(=O)CCCCCNC(=O)CCCCCNC(=O)CN1CCN(CC(=O)O)CCN(CC(=O)O)CCN(CC(=O)O)CC1)C(=O)N1CCC[C@H]1C(=O)N1CCC[C@H]1C(=O)O [[^67Ga]Ga-DOTA-BPP9a, metal not drawn] ({DOTA-Ahx-Ahx}-EWPRPQIPP-OH)
0.06 %ID/g

###

Experiment: Biodistribution in HEK-ACE2/HEK-ACE xenografted mice
Assay type: in vivo, mouse
Conditions: female, CD1/nude, mouse, HEK-ACE xenograft, iv, 0.5 nmol, total radioactivity, 3 h after i.v. injection, decay-corrected, n = 3; read-out: Biodistribution: ACE xenograft (HEK-ACE)
Residues, ends and D or L forms follow the SMILES beside them. *: point of attachment. DOTA = O=C(O)CN1CCN(CC(=O)O)CCN(CC(=O)*)CCN(CC(=O)O)CC1; Ahx = NCCCCCC(=O)O
Observed Property: tissue uptake at 3 h

# query: tissue uptake at 3 h of entry CC[C@H](C)[C@H](NC(=O)[C@H](CCC(N)=O)NC(=O)[C@@H]1CCCN1C(=O)[C@H](CCCNC(=N)N)NC(=O)[C@@H]1CCCN1C(=O)[C@H](Cc1c[nH]c2ccccc12)NC(=O)[C@H](CCC(=O)O)NC(=O)CCCCCNC(=O)CCCCCNC(=O)CN1CCN(CC(=O)O)CCN(CC(=O)O)CCN(CC(=O)O)CC1)C(=O)N1CCC[C@H]1C(=O)N1CCC[C@H]1C(=O)O [[^67Ga]Ga-DOTA-BPP9a, metal not drawn] ({DOTA-Ahx-Ahx}-EWPRPQIPP-OH)
3.17 %ID/g
